These data points were gathered from PubChem BioAssay (EPA / NIEHS).

Read-out: Monokine induced gamma interferon (MIG), CXCL9 (gene 4283)
Experiment: BSK_hDFCGF_MIG: BioMAP Diversity Plus: hDFCGF Assay for Monokine induced gamma interferon (MIG) Biomarker Activity (AID 2283063)
Details: primary human foreskin fibroblasts; actives raise or lower the signal
Activity calls are given as the source filed them. How the source made its calls: active means hit-call score of the fitted dose curve at least 0.9, where 1 is the maximum; inactive means score below 0.9.
Respond with a class label; see true (1) for active, false (0) for inactive

compound: CCCC1COC(Cn2cncn2)(c2ccc(Cl)cc2Cl)O1 (configuration not stated)
class-assignment: false (0)
--
compound: CO/C=C(/C(=O)OC)c1ccccc1Oc1cc(Oc2ccccc2C#N)ncn1
class-assignment: false (0)
--
compound: O=C(Nc1ccccc1)Nc1ccnc(Cl)c1
class-assignment: false (0)
--
compound: CCc1nn(C)c(C(=O)NCc2ccc(C(C)(C)C)cc2)c1Cl
class-assignment: true (1)
--
compound: N#Cc1cc(Br)c(O)c(Br)c1
class-assignment: false (0)

Problem: Test call, this compound: "COc1ccc(C(c2ccc(OC)cc2)C(Cl)(Cl)Cl)cc1"
Result: false (0)

Problem: Test call, this compound: "CS/C(C)=N/OC(=O)N(C)SN(C)C(=O)O/N=C(\C)SC"
Result: true (1)

Problem: Test call, this compound: OC(c1ccc(Cl)cc1)(c1cncnc1)c1ccccc1Cl (configuration not stated)
Result: false (0)

###

Molecular target: Nucleoli Translocation, AR (gene 367)
Experiment: UPITT_HCI_U2OS_AR_TIF2_Nucleoli_Antagonist: University of Pittsburgh U2OS Androgen Receptor-Transcriptional Intermediary Factor 2 (AR-TIF2) Antagonism High Content Imaging Assay for Nucleoli Translocation (AID 2283997)
Records with an inconclusive call do not appear. Calls of active or inactive are those of the source. Rule for the calls: active = hit-call score of the fitted dose curve at least 0.9, where 1 is the maximum; inconclusive = response in the unintended direction; inactive = score below 0.9.
Respond with a class label; see t for active, f for inactive

Solved entries:
compound: N#CC(CCc1ccc(Cl)cc1)(Cn1cncn1)c1ccccc1 (configuration not stated)
class-assignment: f
//
compound: CCON=C(CC)C1=C(O)CC(c2c(C)cc(C)cc2C)CC1=O (configuration not stated)
class-assignment: f
//
compound: CC(C)Oc1cc(-n2nc(C(C)(C)C)oc2=O)c(Cl)cc1Cl
class-assignment: f
//
compound: CO/C=C(/C(=O)OC)c1ccccc1Oc1cc(Oc2ccccc2C#N)ncn1
class-assignment: f
//
compound: Cc1ccc(-c2c(Cl)nc(C#N)n2S(=O)(=O)N(C)C)cc1
class-assignment: f
//
compound: CCOC(=O)CC(SP(=S)(OC)OC)C(=O)OCC (configuration not stated)
class-assignment: t

Shifting focus to the compound that follows.
Problem: Test call, this compound: N#Cc1nn(-c2c(Cl)cc(C(F)(F)F)cc2Cl)c(N)c1S(=O)C(F)(F)F (configuration not stated)
Result: f

###

Assay: CCTE_Shafer_MEA_dev_correlation_coefficient_mean: CCTE's Neural Network Formation Assay for Mean Correlation Coefficient, Shafer Lab (AID 2284093)
Description: CCTE_Shafer_MEA_dev assay is conducted using Axion Biosystems 48 well microelectrode array (MEA) plates and Maestro recording system. Each well of the MEA plate contains a grid of 16 microelectrodes embedded in the culture surface. Electrically active cells, such as neurons, can be cultured over the electrodes, and electrical activity in these cells can be recorded extracellularly. […]
The source made the active and inactive calls. How the source made its calls: active means hit-call score of the fitted dose curve at least 0.9, where 1 is the maximum; inactive means score below 0.9.
Respond with a class label; see 1 (active), 0 (inactive)

Solved entries:
compound: CCCCNC(=O)n1c(NC(=O)OC)nc2ccccc21
class-assignment: 1
//
compound: Cc1c(F)c(F)c(COC(=O)C2C(/C=C(\Cl)C(F)(F)F)C2(C)C)c(F)c1F (configuration not stated)
class-assignment: 1
//
compound: N#Cc1nn(-c2c(Cl)cc(C(F)(F)F)cc2Cl)c(N)c1S(=O)C(F)(F)F (configuration not stated)
class-assignment: 0
//
compound: COP(N)(=O)SC (configuration not stated)
class-assignment: 0
//
compound: CC(C)(C)c1ccc(CSc2cnn(C(C)(C)C)c(=O)c2Cl)cc1
class-assignment: 1
//
compound: CCNc1nc(Cl)nc(NC(C)C)n1
class-assignment: 0

Shifting focus to the compound that follows.
Problem: Test call, this compound: "CNC(=O)ON=CC(C)(C)SC"
Result: 0
